- System: MCF-10A
- assay name: normalised response (% of control), CellTox Green; higher = less cell death (100 = DMSO, 0 = benzethonium chloride kill control)
- assay context: incubation time: 72 h
parameter: normalised response
Entry format: amount then unit.

Example entries and their recorded answers appear below.
compound	normalised response
O=P1(N(CCCl)CCCl)NCCCO1 (stereo unspecified) [Cyclophosphamide] (4000 nM)	86.7%
Cc1cc(Nc2cc(CN3CCOCC3)c3nc(C)c(Cc4ccc(Cl)cc4F)n3n2)n[nH]1 [Gandotinib] (100 nM)	84.8%

Record CCOC(=O)CCNc1cc(N2CCc3ccccc3CC2)nc(-c2ccccn2)n1 [GSK-J4] (1000 nM) . Reported normalised response: 103%

Record CCOC(=O)CCNc1cc(N2CCc3ccccc3CC2)nc(-c2ccccn2)n1 [GSK-J4] (10000 nM) . Reported normalised response: 89.3%

Record COCC1(CO)C(=O)C2CCN1CC2 (stereo unspecified) [Prima-1 Met] (100 nM) . Reported normalised response: 82%

Record COC(=O)c1ccc2c(c1)NC(=O)/C2=C(\Nc1ccc(N(C)C(=O)CN2CCN(C)CC2)cc1)c1ccccc1 [Nintedanib] (1000 nM) . Reported normalised response: 105%

====

- Tested on: HDQ-P1
- assay name: normalised viability (% of control), CellTiter-Blue; higher = more viable cells (about 100 = DMSO control)
- assay context: incubation time: 72 h
parameter: normalised viability (%)
Give just the number in %; leave the unit off.

molecule	target entity	endpoint unit	recorded value
Nc1cc(C(F)(F)F)c(-c2cc(N3CCOCC3)nc(N3CCOCC3)n2)cn1 [BKM-120] (10000 nM)	HDQ-P1	%	12.4
COc1cc2/c(=N/c3ccc(Br)cc3F)nc[nH]c2cc1OCC1CCN(C)CC1 [Vandetanib] (10000 nM)	HDQ-P1	%	8.94
COCC[n+]1c2c(n(Cc3cnccn3)c1C)C(=O)c1ccccc1C2=O [YM155] (10000 nM)	HDQ-P1	%	0.66
O=C(Nc1cccnc1)N1CCC(Cc2cccc(Oc3ccc(C(F)(F)F)cn3)c2)CC1 [PF-3845] (10000 nM)	HDQ-P1	%	128
Oc1ccc2c(c1)CC[C@H](c1ccccc1)[C@@H]2c1ccc(OCCN2CCCC2)cc1 [Lasofoxifene] (1000 nM)	HDQ-P1	%	125

Okay, now this molecule:
# lookup: CC(C)C[C@@H](C(=O)N[C@H](C(=O)OC1CCCC1)c1ccccc1)[C@H](O)C(=O)NO [Tosedostat] (10000 nM) on HDQ-P1, normalised viability = 76.5

====

- System: DU-4475
- assay name: normalised viability (% of control), CellTiter-Blue; higher = more viable cells (about 100 = DMSO control)
- assay context: 100 nM; incubation time: 72 h
parameter: normalised viability (%)
Give just the number in %; leave the unit off.

Record `CN(C)CCOc1ccc(/C(=C(/CCCl)c2ccccc2)c2ccccc2)cc1` . Reported normalised viability: 99.4

Record `COc1cc2/c(=N/c3ccc(Br)cc3F)nc[nH]c2cc1OCC1CCN(C)CC1` . Reported normalised viability: 106

Record `CC(C)C[C@@H](C(=O)N[C@H](C(=O)OC1CCCC1)c1ccccc1)[C@H](O)C(=O)NO` . Reported normalised viability: 68

Record `COc1cc(OC2CCN(C)CC2)ccc1Nc1ncc2c(n1)n(C1CCCC1)c(=O)n2C` . Reported normalised viability: 100

Record `NC(=O)c1ccc(I)c([N+](=O)[O-])c1` . Reported normalised viability: 98.8

====

- Test system: MDA-MB-453
- assay name: normalised response (% of control), CellTiter-Glo; higher = more viable cells (100 = DMSO, 0 = benzethonium chloride kill control)
- assay context: incubation time: 72 h
parameter: normalised response
Entry format: amount then unit.

molecule	recorded value
COc1cc2/c(=N/c3ccc(Br)cc3F)nc[nH]c2cc1OCC1CCN(C)CC1 [Vandetanib] (1 nM)	86%
CN(C)c1nc(N(C)C)nc(N(C)C)n1 [Altretamine] (1 nM)	124%
N#Cc1ccc(COC[C@H]2O[C@@H](n3c(NCc4ccc(Cl)c(Cl)c4)nc4c(N)ncnc43)[C@H](O)[C@@H]2O)cc1 (1 nM)	112%
c1ccc2c(CCNc3ccc(Nc4ccncc4)cc3)c[nH]c2c1 [Serdemetan] (1000 nM)	110%

Record CCOC(=O)CCNc1cc(N2CCc3ccccc3CC2)nc(-c2ccccn2)n1 [GSK-J4] (100 nM) . Reported normalised response: 84.8%

Record c1ccc2c(CCNc3ccc(Nc4ccncc4)cc3)c[nH]c2c1 [Serdemetan] (1 nM) . Reported normalised response: 112%

Record Oc1ccc2c(c1)CC[C@H](c1ccccc1)[C@@H]2c1ccc(OCCN2CCCC2)cc1 [Lasofoxifene] (1 nM) . Reported normalised response: 112%

Record CCn1c(-c2nonc2N)nc2cnc(Oc3cccc(NC(=O)c4ccc(OCCN5CCOCC5)cc4)c3)cc21 (10 nM) . Reported normalised response: 91.3%

Record CNC(=O)c1ccc(N2C(=S)N(c3ccc(C#N)c(C(F)(F)F)c3)C(=O)C2(C)C)cc1F [Enzalutamide] (1000 nM) . Reported normalised response: 95.7%

Record Cc1cc(Nc2cc(CN3CCOCC3)c3nc(C)c(Cc4ccc(Cl)cc4F)n3n2)n[nH]1 [Gandotinib] (1 nM) . Reported normalised response: 103%

Record O=C(/C=C/c1cccc(S(=O)(=O)Nc2ccccc2)c1)NO [Belinostat] (10 nM) . Reported normalised response: 97.1%

Record Cc1ccc(NC(=O)c2ccc(CN3CCN(C)CC3)cc2)cc1Nc1nc(-c2cccnc2)cs1 [Masitinib] (1 nM) . Reported normalised response: 110%

====

- System: CAL-85-1
- assay name: normalised response (% of control), CellTiter-Glo; higher = more viable cells (100 = DMSO, 0 = benzethonium chloride kill control)
- assay context: incubation time: 72 h
parameter: normalised response (%)
Give just the number in %; leave the unit off.

Example entries and their recorded answers appear below.
molecule	target entity	parameter	recorded value
COc1cc(O)c2c(c1)/C=C/C[C@H](O)[C@H](O)C(=O)/C=C\C[C@H](C)OC2=O [(5Z)-7-Oxozeaenol] (1 nM)	CAL-85-1	normalised response	95.2
COc1cc(OC2CCN(C)CC2)ccc1Nc1ncc2c(n1)n(C1CCCC1)c(=O)n2C [AZ 3146] (1 nM)	CAL-85-1	normalised response	99.7
CNC(=O)c1cc(Oc2ccc(NC(=O)Nc3ccc(Cl)c(C(F)(F)F)c3)c(F)c2)ccn1 [Regorafenib] (1000 nM)	CAL-85-1	normalised response	109

Record CNC(=O)c1ccc(N2C(=S)N(c3ccc(C#N)c(C(F)(F)F)c3)C(=O)C23CCC3)cc1F [RD162] (1000 nM) . Reported normalised response: 96.7

Record CCc1c2c(nc3ccc(OC(=O)N4CCC(N5CCCCC5)CC4)cc13)-c1cc3c(c(=O)n1C2)COC(=O)[C@]3(O)CC [Irinotecan] (1000 nM) . Reported normalised response: 104

Record COc1cc2c(NC3CCN(C(C)C)CC3)nc(N3CCC(F)(F)CC3)nc2cc1OCCCN1CCCC1 [UNC0642] (10 nM) . Reported normalised response: 96.6

Record CCOC(=O)CCNc1cc(N2CCc3ccccc3CC2)nc(-c2ccccn2)n1 [GSK-J4] (10 nM) . Reported normalised response: 93.1

Record CC(C)C[C@@H](C(=O)N[C@H](C(=O)OC1CCCC1)c1ccccc1)[C@H](O)C(=O)NO [Tosedostat] (10 nM) . Reported normalised response: 92.2

Record CO[C@H]1C[C@@H]2CC[C@@H](C)[C@@](O)(O2)C(=O)C(=O)N2CCCC[C@H]2C(=O)O[C@H]([C@H](C)C[C@@H]2CC[C@@H](OP(C)(C)=O)[C@H](OC)C2)CC(=O)[C@H](C)/C=C(\C)[C@@H](O)[C@@H](OC)C(=O)[C@H](C)C[C@H](C)/C=C/C=C/C=C/1C [Ridaforolimus] (10 nM) . Reported normalised response: 69.9

Record O=P1(N(CCCl)CCCl)NCCCO1 (centres undefined) [Cyclophosphamide] (40 nM) . Reported normalised response: 98.7

Record S=P(N1CC1)(N1CC1)N1CC1 [Thio-TEPA] (5000 nM) . Reported normalised response: 97.2

Record CNC(=O)c1ccc(N2C(=S)N(c3ccc(C#N)c(C(F)(F)F)c3)C(=O)C2(C)C)cc1F [Enzalutamide] (1 nM) . Reported normalised response: 95.6

Record CN(C)CCOc1ccc(/C(=C(/CCCl)c2ccccc2)c2ccccc2)cc1 [Toremifene] (10 nM) . Reported normalised response: 95.1

Record COCC1(CO)C(=O)C2CCN1CC2 (centres undefined) [Prima-1 Met] (1 nM) . Reported normalised response: 101

====

- Tested on: Hs578T
- assay name: normalised response (% of control), CellTiter-Glo; higher = more viable cells (100 = DMSO, 0 = benzethonium chloride kill control)
- assay context: incubation time: 72 h
parameter: normalised response (%)
Give just the number in %; leave the unit off.

compound	parameter	endpoint unit	recorded value
COc1cc2c(NC3CCN(C(C)C)CC3)nc(N3CCC(F)(F)CC3)nc2cc1OCCCN1CCCC1 [UNC0642] (1000 nM)	normalised response	%	100

# lookup: CCn1c(-c2nonc2N)nc2cnc(Oc3cccc(NC(=O)c4ccc(OCCN5CCOCC5)cc4)c3)cc21 (1000 nM) on Hs578T, normalised response = 73.5

# lookup: CNC(=O)c1cccc(-c2ccc3c(N4CCOC[C@@H]4C)nc(N4CCOC[C@@H]4C)nc3n2)c1 [AZD2014] (1 nM) on Hs578T, normalised response = 101

# lookup: O=C(Nc1cccnc1)N1CCC(Cc2cccc(Oc3ccc(C(F)(F)F)cn3)c2)CC1 [PF-3845] (1000 nM) on Hs578T, normalised response = 104

src = the supplement of paper PMC4862054
